The reported numbers originate from ChEMBL document CHEMBL4622970.

EXPERIMENTAL TARGET: RecQ-like DNA helicase BLM (Homo sapiens, UniProt P54132, H996A)
Sequence (P54132 whole entry H996A): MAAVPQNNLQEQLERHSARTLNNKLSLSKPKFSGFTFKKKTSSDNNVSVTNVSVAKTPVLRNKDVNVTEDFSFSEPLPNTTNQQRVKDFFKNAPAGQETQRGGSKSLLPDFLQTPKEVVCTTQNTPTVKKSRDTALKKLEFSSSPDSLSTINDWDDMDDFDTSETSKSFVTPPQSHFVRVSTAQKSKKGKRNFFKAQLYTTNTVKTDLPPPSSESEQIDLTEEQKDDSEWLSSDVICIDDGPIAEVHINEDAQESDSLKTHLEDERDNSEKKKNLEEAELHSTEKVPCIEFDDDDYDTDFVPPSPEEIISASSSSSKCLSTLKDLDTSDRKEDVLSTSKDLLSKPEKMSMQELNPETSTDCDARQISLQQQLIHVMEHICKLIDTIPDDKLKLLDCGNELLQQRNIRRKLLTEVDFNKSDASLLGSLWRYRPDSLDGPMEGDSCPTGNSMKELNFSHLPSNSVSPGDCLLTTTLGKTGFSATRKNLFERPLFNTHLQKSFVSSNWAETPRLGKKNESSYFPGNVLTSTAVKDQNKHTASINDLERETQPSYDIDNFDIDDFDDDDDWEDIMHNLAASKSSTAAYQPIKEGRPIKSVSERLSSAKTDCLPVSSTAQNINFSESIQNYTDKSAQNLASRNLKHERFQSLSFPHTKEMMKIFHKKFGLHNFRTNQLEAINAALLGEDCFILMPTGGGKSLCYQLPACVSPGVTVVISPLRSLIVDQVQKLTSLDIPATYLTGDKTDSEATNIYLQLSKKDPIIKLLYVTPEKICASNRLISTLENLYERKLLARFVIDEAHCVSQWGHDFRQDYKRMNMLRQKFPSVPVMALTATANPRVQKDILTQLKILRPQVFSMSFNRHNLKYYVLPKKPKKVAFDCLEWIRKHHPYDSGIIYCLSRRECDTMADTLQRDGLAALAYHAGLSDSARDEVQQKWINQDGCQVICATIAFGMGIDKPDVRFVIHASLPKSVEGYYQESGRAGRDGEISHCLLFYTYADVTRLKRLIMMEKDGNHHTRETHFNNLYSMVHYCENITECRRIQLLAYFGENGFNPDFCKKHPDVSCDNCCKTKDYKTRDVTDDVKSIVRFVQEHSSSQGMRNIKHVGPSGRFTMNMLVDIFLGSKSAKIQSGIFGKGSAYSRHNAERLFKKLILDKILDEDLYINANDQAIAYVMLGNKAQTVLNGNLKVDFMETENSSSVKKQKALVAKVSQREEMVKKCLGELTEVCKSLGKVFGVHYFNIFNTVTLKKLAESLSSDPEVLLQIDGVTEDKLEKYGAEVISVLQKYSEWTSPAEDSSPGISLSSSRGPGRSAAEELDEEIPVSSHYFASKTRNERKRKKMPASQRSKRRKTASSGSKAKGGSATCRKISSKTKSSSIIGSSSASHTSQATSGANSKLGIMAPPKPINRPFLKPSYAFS
EXPERIMENTAL DETAILS: Binding affinity to His-tagged BLM H996A mutant (unknown origin) expressed in Escherichia coli BL21 (DE3) cells by isothermal calorimetric titration assay
pKd: −log10 of the molar value.

{"COMPOUND SMILES": "CCN(CC)CCCNc1cc2nc(/C=C/c3ccc(C(C)C)cc3)n(CCCl)c(=O)c2cc1F", "EXPERIMENTAL TARGET": "RecQ-like DNA helicase BLM (Homo sapiens, UniProt P54132, H996A)", "pKd": 5.85}

====

// values below are reported pIC50
EXPERIMENTAL TARGET: RecQ-like DNA helicase BLM (Homo sapiens, UniProt P54132)
Sequence (P54132 whole entry, the tested form may be a part): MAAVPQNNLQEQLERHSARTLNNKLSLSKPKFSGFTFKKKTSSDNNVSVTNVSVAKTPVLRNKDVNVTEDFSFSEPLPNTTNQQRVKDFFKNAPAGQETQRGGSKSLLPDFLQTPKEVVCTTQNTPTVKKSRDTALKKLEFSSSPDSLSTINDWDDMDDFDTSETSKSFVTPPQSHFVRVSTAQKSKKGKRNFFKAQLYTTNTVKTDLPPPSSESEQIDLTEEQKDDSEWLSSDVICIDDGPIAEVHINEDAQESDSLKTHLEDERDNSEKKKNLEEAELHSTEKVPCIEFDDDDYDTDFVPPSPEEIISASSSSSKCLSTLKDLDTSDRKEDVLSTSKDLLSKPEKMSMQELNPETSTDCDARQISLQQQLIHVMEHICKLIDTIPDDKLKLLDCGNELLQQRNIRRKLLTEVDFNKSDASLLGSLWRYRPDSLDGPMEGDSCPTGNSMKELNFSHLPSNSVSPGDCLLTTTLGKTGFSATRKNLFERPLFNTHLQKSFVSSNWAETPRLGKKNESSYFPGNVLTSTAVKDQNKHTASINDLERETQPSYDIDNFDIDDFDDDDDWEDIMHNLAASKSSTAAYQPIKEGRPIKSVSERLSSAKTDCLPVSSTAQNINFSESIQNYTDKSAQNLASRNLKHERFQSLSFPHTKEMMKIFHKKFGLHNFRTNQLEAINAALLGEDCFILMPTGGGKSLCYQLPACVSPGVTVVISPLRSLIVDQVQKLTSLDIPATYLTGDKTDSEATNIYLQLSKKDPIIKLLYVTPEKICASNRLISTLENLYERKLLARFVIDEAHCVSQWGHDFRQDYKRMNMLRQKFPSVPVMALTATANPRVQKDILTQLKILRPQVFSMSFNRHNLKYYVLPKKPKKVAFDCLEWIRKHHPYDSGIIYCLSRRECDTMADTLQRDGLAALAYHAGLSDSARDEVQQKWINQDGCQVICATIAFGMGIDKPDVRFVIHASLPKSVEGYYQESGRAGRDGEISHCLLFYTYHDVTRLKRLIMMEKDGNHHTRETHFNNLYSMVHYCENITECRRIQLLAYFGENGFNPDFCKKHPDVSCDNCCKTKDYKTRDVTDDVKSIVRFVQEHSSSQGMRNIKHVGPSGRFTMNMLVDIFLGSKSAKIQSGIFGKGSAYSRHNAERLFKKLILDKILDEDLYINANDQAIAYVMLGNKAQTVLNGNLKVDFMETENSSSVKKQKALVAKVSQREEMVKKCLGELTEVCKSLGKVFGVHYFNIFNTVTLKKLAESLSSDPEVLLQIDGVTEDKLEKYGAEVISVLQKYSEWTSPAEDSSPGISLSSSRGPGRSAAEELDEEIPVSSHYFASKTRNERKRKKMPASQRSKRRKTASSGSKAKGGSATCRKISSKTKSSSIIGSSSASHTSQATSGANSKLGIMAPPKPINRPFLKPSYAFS
EXPERIMENTAL DETAILS: Inhibition of His-tagged BLM (642 to 1296 residues) (unknown origin) expressed in Escherichia coli BL21 (DE3) cells assessed as reduction in DNA unwinding activity using 5'-biotin-labeled forked DNA as substrate preincubated for 1 hr followed by substrate addition and measured after 1 hr by electrophoretic mobility shift assay
pIC50: −log10 of the molar value.

{"COMPOUND": "CCN(CC)CCNc1ccc2c(=O)n3c(nc2c1)/C(=C/c1ccc(C(C)C)cc1)CC3", "VALUE RELATION SIGN": "=", "pIC50": 5.89}
{"COMPOUND": "CCN(CC)CCNc1cc2nc3n(c(=O)c2cc1F)CC/C3=C\\c1ccc(N(CC)CC)cc1O", "VALUE RELATION SIGN": "=", "pIC50": 5.68}
{"COMPOUND": "CCN(CC)CCCNc1cc2nc(/C=C/c3ccc(C(C)C)cc3)[nH]c(=O)c2cc1F", "VALUE RELATION SIGN": "<", "pIC50": 5.00}
{"COMPOUND": "CCN(CC)CCNc1cc2nc3c(cc2cc1F)CC/C3=C\\c1ccc(C(C)C)cc1", "VALUE RELATION SIGN": "<", "pIC50": 5.00}
{"COMPOUND": "CCN(CC)CCCNc1cc2nc3n(c(=O)c2cc1F)CC/C3=C\\c1ccc(C(C)C)cc1", "VALUE RELATION SIGN": "=", "pIC50": 5.82}
{"COMPOUND": "CCN(CC)CCNc1cc2nc3n(c(=O)c2cc1F)CCC3Cc1ccc(C(C)C)cc1O (centres undefined)", "VALUE RELATION SIGN": "<", "pIC50": 5.00}
{"COMPOUND": "CC(=O)NCCNc1cc2nc3n(c(=O)c2cc1F)CC/C3=C\\c1ccc(C(C)C)cc1", "VALUE RELATION SIGN": "<", "pIC50": 5.00}
{"COMPOUND": "CCN(CC)CCCCNc1cc2nc3n(c(=O)c2cc1F)CC/C3=C\\c1ccc(C(C)C)cc1", "VALUE RELATION SIGN": "=", "pIC50": 5.74}
{"COMPOUND": "CC(C)c1ccc(/C=C2\\CCc3c2nc2ccccc2c3NCCCN(C)C)cc1", "VALUE RELATION SIGN": "<", "pIC50": 5.00}

====

EXPERIMENTAL TARGET: RecQ-like DNA helicase BLM (Homo sapiens, UniProt P54132, I1168A)
Sequence (P54132 whole entry I1168A): as the sequence (P54132 whole entry, the tested form may be a part) above, with I1168A counted along it
EXPERIMENTAL DETAILS: Binding affinity to His-tagged BLM I1168A mutant (unknown origin) expressed in Escherichia coli BL21 (DE3) cells by isothermal calorimetric titration assay
ASSAY ENDPOINT: Kd (µM)

{"COMPOUND SMILES": "CCN(CC)CCCNc1cc2nc(/C=C/c3ccc(C(C)C)cc3)n(CCCl)c(=O)c2cc1F", "ASSAY ENDPOINT": "Kd", "MEASURE UNIT": "µM", "EXPERIMENTAL VALUE": 6.54}
